# method.description: Acute toxicity test
# test.conditions: mouse, in vivo, po
# Protocol: With 4 to 5 ddy-strain male mice of 6 weeks old as one group, the compound of the present invention was orally administered as a suspension in 1% tragacanth solution, and observation was conducted for 7 days and the number of dead mice was examined to obtain the results shown in Table 3.
measurement.type: LD50 at 168 h

[
  {
    "chemical.structure": "O=C(O)CCC(=O)Nc1cccc(/C=C/c2ccc3ccccc3n2)c1",
    "result": "> 1000 mg/kg"
  }
]
